# tested_target: unc-120 (D1081.2) (Caenorhabditis elegans)
# Sequence: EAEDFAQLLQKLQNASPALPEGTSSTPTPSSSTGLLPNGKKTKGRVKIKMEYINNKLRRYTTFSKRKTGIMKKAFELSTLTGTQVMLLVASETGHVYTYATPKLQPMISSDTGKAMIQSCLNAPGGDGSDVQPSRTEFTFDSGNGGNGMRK
We begin with a simple list: items and their reported binding signal (PBM E-score (-0.5 to 0.5)).
result_type: binding signal (PBM E-score (-0.5 to 0.5))

[
  {
    "sequence_text": "CATATAAG (double strand) [8-mer CATATAAG]",
    "result_number": 0.466
  },
  {
    "sequence_text": "ATATAAGG (double strand) [8-mer ATATAAGG]",
    "result_number": 0.478
  },
  {
    "sequence_text": "CATATATG (double strand) [8-mer CATATATG]",
    "result_number": 0.468
  },
  {
    "sequence_text": "GCCTTATA (double strand) [8-mer GCCTTATA]",
    "result_number": 0.47
  },
  {
    "sequence_text": "TACCATAA (double strand) [8-mer TACCATAA]",
    "result_number": 0.462
  },
  {
    "sequence_text": "AAATATGG (double strand) [8-mer AAATATGG]",
    "result_number": 0.474
  },
  {
    "sequence_text": "CCATATAA (double strand) [8-mer CCATATAA]",
    "result_number": 0.465
  },
  {
    "sequence_text": "CCTTATAA (double strand) [8-mer CCTTATAA]",
    "result_number": 0.474
  },
  {
    "sequence_text": "TATAAGGA (double strand) [8-mer TATAAGGA]",
    "result_number": 0.472
  },
  {
    "sequence_text": "CCATAAAA (double strand) [8-mer CCATAAAA]",
    "result_number": 0.459
  },
  {
    "sequence_text": "ACCTTATA (double strand) [8-mer ACCTTATA]",
    "result_number": 0.466
  }
]
